Recorded % viability of CHO cells for the following compounds
Tested on: CHO
Test: % viability of CHO cells (MTT); higher = less toxic
Settings: 2 µM; 48 h
The figure you give is taken to be in %; do not add the unit.

> print(dat)
                                   compound  tested.target         property.measured  quantitative.result
1  O=C(Nc1cccc(C2=NCCN2)c1)c1ccc(-c2ccc(C(=O)Nc3cccc(C4=NCCN4)c3)cc2)cc1            CHO  % viability of CHO cells                 90.2
2   O=C(Nc1nnc(-c2ccc(Cl)cc2)o1)c1ccc(F)cc1            CHO  % viability of CHO cells                 94.3
3  [N-]=[N+]=N[C@H]1C[C@H](n2ccc(=O)[nH]c2=O)O[C@@H]1CO            CHO  % viability of CHO cells                  109
4           Clc1cccc(-c2nnc(-c3ccccc3)o2)c1            CHO  % viability of CHO cells                 98.4

Item under review: `CC(C)(C)c1ccc(OCCn2nc(C(=O)O)c3ccccc3c2=O)cc1` . Reported % viability of CHO cells?
100

Item under review: `O=c1cc(Nc2ccc3ccccc3c2)[nH]c(=O)[nH]1` . Reported % viability of CHO cells?
85.2

Item under review: CC(Cc1ccccc1)C(=O)Nc1ccc(Cl)cc1C(=O)O (stereo not given) . Reported % viability of CHO cells?
102

Item under review: `Cc1onc(-c2ccccc2)c1-c1ccc(S(N)(=O)=O)cc1` . Reported % viability of CHO cells?
120

Item under review: `COc1ccc(OCc2ccc(COc3c(Cl)cccc3Cl)cc2)c(Cl)c1` . Reported % viability of CHO cells?
99.5

Item under review: CSc1ccc2c(c1)C(N1CCN(C)CC1)Cc1ccccc1S2 (stereo not given) . Reported % viability of CHO cells?
90.7

Item under review: `CCC[C@@H]1C[C@@H](C(=O)N[C@@H]([C@H]2O[C@H](SC)[C@H](O)[C@@H](O)[C@H]2O)[C@H](C)Cl)N(C)C1` . Reported % viability of CHO cells?
89.5

Item under review: `Oc1cc(-c2cccc3ccccc23)[nH]n1` . Reported % viability of CHO cells?
109

Item under review: `O=C(Nc1ccccc1)N(Cc1cc(Br)ccc1O)c1ccc(F)cc1` . Reported % viability of CHO cells?
99.5

Item under review: `Oc1ccc2[nH]c(-c3ccccc3)nc2c1` . Reported % viability of CHO cells?
107

Item under review: `O=C(NCc1ccc(F)cc1)c1c(O)c2ncccc2[nH]c1=O` . Reported % viability of CHO cells?
121

Item under review: `COc1cc(NC(=O)CN2C(=O)NC(c3ccccc3)(c3ccccc3)C2=O)cc(OC)c1` . Reported % viability of CHO cells?
91.4

Item under review: `CCOC(=O)/C=C/[C@H](C[C@@H]1CCNC1=O)NC(=O)[C@H](CC)n1cccc(NC(=O)c2cc(C)on2)c1=O` . Reported % viability of CHO cells?
89

Item under review: `O=C1NC(=O)C(Br)=C1Br` . Reported % viability of CHO cells?
118

Item under review: `Cn1c2ccccc2c(=O)c2c(O)cccc21` . Reported % viability of CHO cells?
229

Item under review: COc1ccc(COc2cc3oc(=O)c4cc(C(C)O)ccc4c3cc2OC)cc1 (stereo not given) . Reported % viability of CHO cells?
81.5

Item under review: `COc1c(NC(=O)[C@H]2CC[C@@H](COc3ccc([N+](=O)[O-])cc3)CC2)c(F)cc2c(=O)c(C(=O)O)cn(C3CC3)c12` . Reported % viability of CHO cells?
104
